# System: V79 (Chinese hamster lung) cells
# assay_context: V79 vs IPC5202
# Procedure: Cytotoxicity was assessed on the mammalian cell lines HepG2-A16 (human hepatoma) and V79 (Chinese hamster lung), using a MTT based assay, as previously described. […] V79 and HepG2 cell lines were incubated for 24 and 48 h, respectively (media changed at 24 h intervals). Absorbance was read at 570 nm on a multi-mode microplate reader (Triad, Dynex Technologies), to produce a log dose-dependence curve. […]
Quick rule: Selectivity index LD50 (V79)/IC50 (IPC5202) of at least 30000 means yes (1), below that means no (0).

These recorded examples may help you get a feel for the data.
{"compound": "O=S1(=O)N=C(NCC2CCC3(CC2)OOC2(O3)C3CC4CC(C3)CC2C4)c2ccccc21 (stereo not shown)", "classification": "yes (1)"}
{"compound": "O=S1(=O)N=C(OCC2CCC3(CC2)OOC2(O3)C3CC4CC(C3)CC2C4)c2ccccc21 (stereo not shown)", "classification": "no (0)"}
{"compound": "c1ccc(-n2nnnc2OCC2CCC3(CC2)OOC2(O3)C3CC4CC(C3)CC2C4)cc1 (stereo not shown)", "classification": "yes (1)"}
{"compound": "CC(C)(C)OC(=O)NCCCCNC1CCC2(CC1)OOC1(O2)C2CC3CC(C2)CC1C3 (stereo not shown)", "classification": "no (0)"}
{"compound": "Cn1nnc(NCC2CCC3(CC2)OOC2(O3)C3CC4CC(C3)CC2C4)n1 (stereo not shown)", "classification": "yes (1)"}

Please look at the following compound next.
Q: Determine whether this compound has Selectivity index LD50 (V79)/IC50 (IPC5202) no lower than 30000: C1C2CC3CC1CC(C2)C31OOC2(CCC(Nc3nnn[nH]3)CC2)O1 (stereo not shown)
Result: yes (1)

###

# Test system: P. falciparum 3D7 (chloroquine and mefloquine sensitive)
# test_protocol: SYBR Green I assay, IC50, strain 3D7
# Assay type: cell-based, Plasmodium falciparum
# assay_context: Plasmodium falciparum, 3D7, strain 3D7; read-out: P. falciparum IC50 ± SD, 3D7
assay_endpoint: IC50 (µM)
Give just the number in µM; leave the unit off.

{"molecule": "O=C(Nc1nnn[nH]1)C1CCC2(CC1)OOC1(O2)C2CC3CC(C2)CC1C3 (stereo not drawn)", "experimental_value": 0.117}
{"molecule": "NCC1CCC2(CC1)OOC1(O2)C2CC3CC(C2)CC1C3 (stereo not drawn)", "experimental_value": 0.0295}
{"molecule": "C[C@@H]1CC[C@H]2[C@@H](C)C(=O)O[C@@H]3O[C@@]4(C)CC[C@@H]1[C@]32OO4 [ART, artemisinin, reference compound]", "experimental_value": 0.004}
{"molecule": "C[C@H]1[C@H](OC(=O)CCC(=O)O)O[C@@H]2O[C@@]3(C)CC[C@H]4[C@H](C)CC[C@@H]1[C@@]24OO3 [ATN, artesunate, reference compound]", "experimental_value": 0.0051}

// next entry
Q: For P. falciparum 3D7 (chloroquine and mefloquine sensitive), provide IC50 of c1ccc(N2N=NNC23OOC2(O3)C3CC4CC(C3)CC2C4)cc1 (stereo not drawn) please.
Result: 3.66

###

Selectivity index LD50 (HepG2)/IC50 (IPC4912) overview
# Test system: HepG2-A16 (human hepatoma) cells
# assay_context: HepG2 vs IPC4912
// return a plain number; no unit text

Q: Entry C1C2CC3CC1CC(C2)C31OOC2(CCC(Nc3nnn[nH]3)CC2)OO1 (stereo not shown) [LC163] : reported Selectivity index LD50 (HepG2)/IC50 (IPC4912) = ?
Result: 53763.4

Q: # Selectivity index LD50 (HepG2)/IC50 (IPC4912) lookup, item O=S1(=O)N=C(NCC2CCC3(CC2)OOC2(O3)C3CC4CC(C3)CC2C4)c2ccccc21 (stereo not shown) [LC130]
Result: 416666.6

Q: What does the record list as Selectivity index LD50 (HepG2)/IC50 (IPC4912) for O=S1(=O)N=C(OCC2CCC3(CC2)OOC2(O3)C3CC4CC(C3)CC2C4)c2ccccc21 (stereo not shown) [LC129] ?
Result: 29673.5

Q: Returns the measured Selectivity index LD50 (HepG2)/IC50 (IPC4912) for the input molecule. Input: C[C@@H]1CC[C@H]2[C@@H](C)C(=O)O[C@@H]3O[C@@]4(C)CC[C@@H]1[C@]32OO4 [ART, artemisinin, reference compound]
Result: 31295.7
